For each of the compounds below, state its log10 of IC50.
# Test System: His tagged recombinant human tissue transglutaminase (His6-rh-TG2) (Homo sapiens, UniProt P21980)
# Sequence (P21980 whole entry): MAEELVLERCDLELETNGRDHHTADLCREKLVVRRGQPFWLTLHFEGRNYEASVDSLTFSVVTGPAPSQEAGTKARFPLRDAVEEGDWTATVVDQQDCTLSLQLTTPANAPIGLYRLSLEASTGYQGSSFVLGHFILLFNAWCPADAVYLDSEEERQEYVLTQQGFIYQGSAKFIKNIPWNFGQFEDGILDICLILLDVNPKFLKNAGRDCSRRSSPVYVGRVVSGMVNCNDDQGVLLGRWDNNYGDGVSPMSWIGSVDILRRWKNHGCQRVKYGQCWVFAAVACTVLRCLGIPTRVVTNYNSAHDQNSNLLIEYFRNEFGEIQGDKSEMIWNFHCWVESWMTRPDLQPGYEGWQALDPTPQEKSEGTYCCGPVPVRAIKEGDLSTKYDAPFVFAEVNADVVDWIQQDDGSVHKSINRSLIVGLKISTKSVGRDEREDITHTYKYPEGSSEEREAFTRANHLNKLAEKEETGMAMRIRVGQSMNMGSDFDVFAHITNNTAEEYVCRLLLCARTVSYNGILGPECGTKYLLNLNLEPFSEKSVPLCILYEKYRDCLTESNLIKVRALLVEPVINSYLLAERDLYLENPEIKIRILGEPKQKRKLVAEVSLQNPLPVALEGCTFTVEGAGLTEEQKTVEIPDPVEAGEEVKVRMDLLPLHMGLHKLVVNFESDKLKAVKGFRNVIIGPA
# Procedure Details: Inactivation of human tissue transglutaminase, fluorescence assay with Abz-APE(CAD-DNP)QEA-OH
# Condition Details: substrate Abz-APE(CAD-DNP)QEA-OH, 37° C., pH=7.5
# Protocol: General Method for Inactivation of Human Tissue Transglutaminase […] The evaluation of the resulting enzyme activity is done using the slope of the straight line obtained by the increase in fluorescence. To determine the non-inhibited enzyme activity, DMSO instead of inhibitor stock solution is used. IC50 values are determined by plotting the resulting enzyme activity against the logarithm of the inhibitor concentration. […]
# log10 transformed; quantity=IC50; unit=nM

Data request: Param item = CCOC(=O)/C=C/CC[C@H](NS(=O)(=O)c1ccoc1)C(=O)Nc1cccn(CC(=O)NCCC(C)C)c1=O [A13] ; retrieve measured log10 of IC50.
Data returned: 1.92

Data request: Same question for CC(=O)N[C@@H](CC/C=C/S(C)(=O)=O)C(=O)Nc1cccn(CC(=O)NCCC(C)C)c1=O [A77] please.
Data returned: 2.67

Data request: Same question for CCOC(=O)/C=C/CC[C@H](NC(=O)CCC(=O)O)C(=O)Nc1cccn(CC(=O)NCC(CC)CC)c1=O [A30] please.
Data returned: 2.06

Data request: Same question for CCOC(=O)/C=C/CC[C@H](NC(=O)c1ccc(N2CCCCC2)cc1)C(=O)Nc1cccn(CC(=O)NCCC(C)C)c1=O [A18] please.
Data returned: 2.24

Data request: Same question for CCOC(=O)/C=C/CC[C@H](NS(=O)(=O)c1ccc(O)c(C(=O)O)c1)C(=O)Nc1cccn(CC(=O)NCCC(C)C)c1=O [A23] please.
Data returned: 2.68

Data request: Same question for CCOC(=O)/C=C/CC[C@H](NC(C)=O)C(=O)Nc1cccn(CC(=O)NCC(C)C)c1=O [A54] please.
Data returned: 2.28

Data request: Same question for CCOC(=O)/C=C/CC[C@H](NC(C)=O)C(=O)Nc1cccn(CC(=O)NCC2CCN(CC)CC2)c1=O [A48] please.
Data returned: 3.23

----------
# Test System: His tagged recombinant human tissue transglutaminase (His6-rh-TG2) (Homo sapiens, UniProt P21980)
# Procedure Details: Inactivation of human tissue transglutaminase, fluorescence assay with Abz-APE(CAD-DNP)QEA-OH
# Condition Details: substrate Abz-APE(CAD-DNP)QEA-OH, 37° C., pH=7.5
Assay Metric: IC50
Put your answer as a value accompanied by its unit after it.

Data request: Param item = CCOC(=O)/C=C/CC[C@H](NC(=O)CCC(=O)O)C(=O)Nc1cccn(CC(=O)N[C@H](C(=O)OC)[C@H](C)CC)c1=O [A36] ; retrieve measured IC50.
Data returned: 0.088 µM

Data request: Same question for CCOC(=O)/C=C/CC[C@H](NC(=O)CCC(=O)O)C(=O)Nc1cccn(CC(=O)NCCC(CC)CC)c1=O [A43] please.
Data returned: 0.145 µM

Data request: Same question for CCC(CC)CNC(=O)Cn1cccc(NC(=O)[C@H](CC/C=C/C(=O)OC)NC(=O)CN)c1=O [A69] please.
Data returned: 0.071 µM

Data request: Same question for CCOC(=O)/C=C/CC[C@H](NC(=O)c1ccccc1)C(=O)Nc1cccn(CC(=O)NCCC(C)C)c1=O [A10] please.
Data returned: 0.073 µM
